- ASSAY OVERVIEW: The drug is tested on WLS-350 corresponding to human gut metagenome with ENA study accession number: PRJEB37062 and ENA sample accession number: ERS12561789 for biotransformation under anaerobic condition. The drug concentrations were measured over 9 timepoints collected between 0 and 24 hours of incubation by liquid-chromatography-coupled mass spectrometry (LC–MS); note: call rule not given here
- SETTINGS: 2 µM
OBSERVABLE: Bacterial Biotransformation

1) c1ccc([C@H]2CN3CCSC3=N2)cc1 [LEVAMISOLE] :: Compound metabolized
2) O=C(O)COCCN1CCN(C(c2ccccc2)c2ccc(Cl)cc2)CC1 (stereo not drawn) [CETIRIZINE] :: Compound metabolized
3) COc1ccc(CCN(C)CCCC(C#N)(c2ccc(OC)c(OC)c2)C(C)C)cc1OC (stereo not drawn) :: Compound metabolized
